Values compiled from patent US20170306005A1.

Listed here are binders together with their documented koff.
Molecular target: T1, human tenascin-C rCd4-His-FBG (rat; human, UniProt P05540 207-392, limits assumed)
T1 construct: domain: domains 3 and 4; C-terminal FBG fusion; biotinylated in the ELISA and HTRF screens; also called Hu TNC; human TNC rCd4-His-FBG; not shown: 6His tag
T1 sequence (chain (part 1 of 2)): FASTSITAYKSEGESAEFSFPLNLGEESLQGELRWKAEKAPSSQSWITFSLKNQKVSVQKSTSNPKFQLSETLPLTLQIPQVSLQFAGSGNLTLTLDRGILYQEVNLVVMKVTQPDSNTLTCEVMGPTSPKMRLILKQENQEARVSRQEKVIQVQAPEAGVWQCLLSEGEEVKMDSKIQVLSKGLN
T1 sequence (chain (part 2 of 2)): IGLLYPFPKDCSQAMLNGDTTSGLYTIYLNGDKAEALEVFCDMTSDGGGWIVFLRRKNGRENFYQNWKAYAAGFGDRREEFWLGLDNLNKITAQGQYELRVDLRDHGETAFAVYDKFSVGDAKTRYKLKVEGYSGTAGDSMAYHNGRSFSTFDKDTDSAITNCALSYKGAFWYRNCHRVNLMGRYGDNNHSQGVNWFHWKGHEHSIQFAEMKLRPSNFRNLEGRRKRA
Assay: SPR off-rate screen, captured IgG4 supernatant, 25 C
Report the figure in s⁻¹ without appending any unit label.

[
  {
    "BINDER": "160_01_F1 human IgG4 (antibody, V domains shown, human IgG4 with hinge S241P; also called Antibody 160 01 F1 (derived from 2A5)) VH: EVRLVQSGAEVKKPGASVKVSCKVSGYTLTELSMHWVRQAPGKGLEWMGGFDPEDGETIYAQKFQGRVTMTEDTSTDTAYMELSSLRSEDTAVYYCATAQSPWSGMTYWGQGTLVTVSS VL: DIQMTQSPASLPTSVGDRVTITCRASQYIQGFLNWYQQKPGKAPRLLIYAASTLQDGVPSRFSGSGYGTDFTLTISSLQPEDFATYYCQQSYSTPWTFGQGTKVEIKR",
    "UNIT_TEXT": "s⁻¹",
    "koff": "4e-06"
  },
  {
    "BINDER": "165_13_B3 human IgG4 (antibody, V domains shown, human IgG4 with hinge S241P) VH: QVQLVESGGGLVQPGRSLRLSCAASGFTFDDYAMHWVRQAPGKGLEWVSGISGSGGSTYYADSVKGRFTISRDNAKNSLYLQMNSLRAEDTALYYCAKALARGHDTFDIWGQGTMVTVSS VL: DIQMTQSPASLPTPVGDRVTITCRASQYIQGFLNWYQQKPGKAPKLLIYDASNLETGVPSRFSGSGSGTDFTLTISSLQPEDFATYYCQQSYSTPQTFGQGTKVDIKR",
    "UNIT_TEXT": "s⁻¹",
    "koff": "1.4e-06"
  },
  {
    "BINDER": "165_13_A4 human IgG4 (antibody, V domains shown, human IgG4 with hinge S241P) VH: QVQLVESGGGLVQPGRSLRLSCAASGFTFDDYAMHWVRQAPGKGLEWVSGISGSGGSTYYADSVKGRFTISRDNAKNSLYLQMNSLRAEDTALYYCAKDKYPVLDTFDIWGQGTMVTVSS VL: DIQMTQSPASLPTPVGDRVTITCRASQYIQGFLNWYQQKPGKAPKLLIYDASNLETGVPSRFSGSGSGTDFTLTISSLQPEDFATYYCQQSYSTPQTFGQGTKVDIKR",
    "UNIT_TEXT": "s⁻¹",
    "koff": 0.000872
  },
  {
    "BINDER": "165_13_E1 human IgG4 (antibody, V domains shown, human IgG4 with hinge S241P) VH: QVQLVESGGGLVQPGRSLRLSCAASGFTFDDYAMHWVRQAPGKGLEWVSGISGSGGSTYYADSVKGRFTISRDNAKNSLYLQMNSLRAEDTALYYCAKDISAVMDVPQTWGQGTMVTVSS VL: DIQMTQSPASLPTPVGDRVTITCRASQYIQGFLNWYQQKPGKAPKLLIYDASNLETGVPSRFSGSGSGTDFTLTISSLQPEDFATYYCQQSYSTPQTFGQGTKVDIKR",
    "UNIT_TEXT": "s⁻¹",
    "koff": "1.4e-06"
  },
  {
    "BINDER": "162_02_C6 human IgG4 (antibody, V domains shown, human IgG4 with hinge S241P; also called Antibody 162 02 C6 (derived from 2A5)) VH: EVRLVQSGAEVKKPGASVKVSCKVSGYTLTELSMHWVRQAPGKGLEWMGGFDPEDGETIYAQKFQGRVTMTEDTSTDTAYMELSSLRSEDTAVYYCATAQKETYALTYWGQGTLVTVSS VL: DIQMTQSPASLPTSVGDRVTITCRASQYIQGFLNWYQQKPGKAPRLLIYAASTLQDGVPSRFSGSGYGTDFTLTISSLQPEDFATYYCQNQYAGPWTFGQGTKVEIKR",
    "UNIT_TEXT": "s⁻¹",
    "koff": "5.3e-06"
  },
  {
    "BINDER": "161_01_H10 human IgG4 (antibody, V domains shown, human IgG4 with hinge S241P; also called Antibody 161 01 H10 (derived from 2A5)) VH: EVRLVQSGAEVKKPGASVKVSCKVSGYTLTELSMHWVRQAPGKGLEWMGGFDPEDGETIYAQKFQGRVTMTEDTSTDTAYMELSSLRSEDTAVYYCATAQPVWAPGTYWGQGTLVTVSS VL: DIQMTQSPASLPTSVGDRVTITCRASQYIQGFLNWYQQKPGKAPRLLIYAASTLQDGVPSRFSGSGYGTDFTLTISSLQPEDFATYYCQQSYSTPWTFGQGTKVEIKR",
    "UNIT_TEXT": "s⁻¹",
    "koff": "2.5e-05"
  }
]

Item under review: 161_01_C11 human IgG4 (antibody, V domains shown, human IgG4 with hinge S241P; also called Antibody 161 01 C11 (derived from 2A5)) VH: EVRLVQSGAEVKKPGASVKVSCKVSGYTLTELSMHWVRQAPGKGLEWMGGFDPEDGETIYAQKFQGRVTMTEDTSTDTAYMELSSLRSEDTAVYYCATAQKEWLPDVTWGQGTLVTVSS VL: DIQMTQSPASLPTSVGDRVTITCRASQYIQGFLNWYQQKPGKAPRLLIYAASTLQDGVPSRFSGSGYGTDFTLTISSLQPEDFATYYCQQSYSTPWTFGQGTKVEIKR . Reported koff?
2.2e-07

Item under review: 161_01_F6 human IgG4 (antibody, V domains shown, human IgG4 with hinge S241P; also called 160_01_F6; Antibody 161 01 F6, also known as 160 01 F6 (derived from 2A5)) VH: EVRLVQSGAEVKKPGASVKVSCKVSGYTLTELSMHWVRQAPGKGLEWMGGFDPEDGETIYAQKFQGRVTMTEDTSTDTAYMELSSLRSEDTAVYYCATAQKENIANRHWGQGTLVTVSS VL: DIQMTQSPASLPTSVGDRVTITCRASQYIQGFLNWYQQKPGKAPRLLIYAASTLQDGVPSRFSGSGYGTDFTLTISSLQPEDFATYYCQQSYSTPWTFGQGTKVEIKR . Reported koff?
2.8e-06

Item under review: 163_02_A12 human IgG4 (antibody, V domains shown, human IgG4 with hinge S241P; also called Antibody 163 02 A12 (derived from 2A5)) VH: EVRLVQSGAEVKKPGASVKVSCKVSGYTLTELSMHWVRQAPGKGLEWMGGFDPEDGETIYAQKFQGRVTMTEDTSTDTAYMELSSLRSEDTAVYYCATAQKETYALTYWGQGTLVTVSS VL: DIQMTQSPASLPTSVGDRVTITCRASQYIQGFLNWYQQKPGKAPRLLIYAASTLQDGVPSRFSGSGYGTDFTLTISSLQPEDFATYYCLHHYREPWTFGQGTKVEIKR . Reported koff?
3.2e-07
